These entries and their values trace back to PubChem BioAssay (NCATS).

Experiment: Quantitative High-Throughput drug screen in 47 multiple myeloma cell lines against the NCATS MIPE library collection: OPM2_DSMZ cell viability assay (AID 1919872); further: nearly all actives have a fitted effect of over 30% in size
Conditions: OPM2 myeloma viability, CellTiter-Glo ATP luminescence, 48 h; series mostly up to 45.8 µM
Results filed as inconclusive are left out. The source made the active and inactive calls. The call rests on the fitted dose curve; in most records, active means well fitted cell-killing curve with a large enough effect; inconclusive means small, poorly fitted or top-dose-only effect, or effect the other way; inactive means no such curve, though single readings can be large or run the other way.
Outcome codes: 1 (active), -1 (inactive)

Compound: Nc1nccc(-c2ccc3noc(-c4ccc(Cl)cc4)c3c2)n1
Assigned Category: -1
--
Compound: Cc1cc(SCc2sc(-c3ccc(C(F)(F)F)cc3)nc2C)ccc1OCC(=O)O
Assigned Category: -1
--
Compound: O=C1CCc2cc(OCCCCc3nnnn3C3CCCCC3)ccc2N1
Assigned Category: -1
--
Compound: O=S(=O)(N=Cc1c(O)ccc2ccccc12)c1cccs1
Assigned Category: -1
--
Compound: COc1ccc([C@@H]2CC(=O)c3c(O)cc(O[C@@H]4O[C@H](CO[C@@H]5O[C@@H](C)[C@H](O)[C@@H](O)[C@@H]5O)[C@@H](O)[C@H](O)[C@@H]4O)cc3O2)cc1O
Assigned Category: -1
--
Compound: CCC(C)n1ncn(-c2ccc(N3CCN(c4ccc(OC[C@H]5CO[C@](Cn6cncn6)(c6ccc(Cl)cc6Cl)O5)cc4)CC3)cc2)c1=O (stereo partly drawn)
Assigned Category: 1
--
Compound: CCN(CC)CCCC(C)Nc1nc(C)cc(Nc2ccc3nc(C)cc(N)c3c2)n1 (stereo not drawn)
Assigned Category: -1
--
Compound: CN(C)C(=O)c1ccc(S(=O)(=O)c2ccc(NC(=O)[C@@](C)(O)C(F)(F)F)c(Cl)c2)cc1
Assigned Category: -1
--
Compound: Cc1cn[nH]c1
Assigned Category: 1
--
Compound: CC(C)NCC(O)COc1ccc(COCCOC(C)C)cc1 (stereo not drawn)
Assigned Category: -1
--
Compound: O=C1CCCC2=C1C(c1[nH]ncc1Cl)N=C(Nc1nc3ccccc3o1)N2 (stereo not drawn)
Assigned Category: -1
--
Compound: COc1ccc(-c2c(-c3ccc(O)cc3O)n[nH]c2C)cc1
Assigned Category: -1
--
Compound: Nc1cccc(S(=O)(=O)N2CCCN(S(=O)(=O)c3ccc4c(c3)OCCO4)CC2)c1
Assigned Category: -1
--
Compound: CCOc1cc(N2CCC(O)CC2)ccc1Nc1ncc2c(n1)N(C)c1ccccc1C(=O)N2C
Assigned Category: 1
--
Compound: Cc1cccc(-c2[nH]c(C(C)(C)C)nc2-c2ccc3nccnc3c2)n1
Assigned Category: -1
--
Compound: OC[C@H](Cc1ccccc1)Nc1nc(Oc2ccc3c(c2)CCC3)nc2c1ncn2Cc1ccc(-c2ccccc2)cc1
Assigned Category: -1
--
Compound: OC(CN1CCC(Cc2ccc(F)cc2)CC1)c1ccc(Cl)cc1 (stereo not drawn)
Assigned Category: -1
--
Compound: O=NN(CCCl)C(=O)NCCCl
Assigned Category: -1
--
Compound: Cn1cc(-c2ccc3nnc(C(F)(F)c4ccc5ncccc5c4)n3n2)cn1
Assigned Category: -1
--
Compound: CNC(=O)c1ccc(N2C(=S)N(c3ccc(C#N)c(C(F)(F)F)c3)C(=O)C2(C)C)cc1F
Assigned Category: -1
--
Compound: N[C@@H]1CONC1=O
Assigned Category: -1
--
Compound: NC(=O)c1ccc(I)c([N+](=O)[O-])c1
Assigned Category: -1
--
Compound: O=C(C=Cc1ccc(/C=C/C(=O)Nc2ccc(C3=NCCN3)cc2)cc1)Nc1ccc(C2=NCCN2)cc1
Assigned Category: 1

----------
Experiment: Quantitative High-Throughput drug screen in 47 multiple myeloma cell lines against the NCATS MIPE library collection: Karpas620_DSMZ cell viability assay (AID 1918959); further: nearly all actives have a fitted effect of over 30% in size
Details: Karpas620 myeloma viability, CellTiter-Glo ATP luminescence, 48 h; series mostly up to 45.8 µM
Inconclusive results are not listed. The source made the active and inactive calls. Calls come from the whole dose curve; as a rule, active = well fitted cell-killing curve with a large enough effect; inconclusive = small, poorly fitted or top-dose-only effect, or effect the other way; inactive = no such curve, though single readings can be large or run the other way.
Outcome codes: yes = active, no = inactive

Compound: CS(=O)(=O)Oc1ccc2c(NC(N)=O)c(C(=O)c3ccc(Cl)cc3Cl)oc2c1
Assigned Category: yes

Compound: CCOc1cc(N2CCC(O)CC2)ccc1Nc1ncc2c(n1)N(C)c1ccccc1C(=O)N2C
Assigned Category: yes

Compound: Cc1c(CCOc2ccc(C(=O)O)cc2)c2cc(Cl)ccc2n1C(c1ccccc1)c1ccccc1
Assigned Category: no

Compound: COc1cc(Oc2ccnc3cc(OC)c(OC)cc23)ccc1NC(=O)NC(C)c1nccs1 (configuration not stated)
Assigned Category: yes

Compound: O=C(c1cc(Cc2n[nH]c(=O)c3ccccc23)ccc1F)N1CCN(C(=O)C2CC2)CC1
Assigned Category: no

Compound: Cc1[nH]c(=O)c(C#N)cc1-c1ccncc1
Assigned Category: no

Compound: CS(=O)(=O)c1ccc(C(=O)Nc2ccc(Cl)c(-c3ccccn3)c2)c(Cl)c1
Assigned Category: no

----------
Tested on: CP215
Assay: qHTS profiling for inhibitors of Plasmodium falciparum proliferation (AID 504749); further: nearly all actives have a fitted effect of over 60% in size
Conditions: P. falciparum in erythrocytes, SYBR Green DNA, 72 h; series mostly up to 28.7 µM
Description: NIH National Institute of Allergy and Infectious Diseases [NIAID] NIH Chemical Genomics Center [NCGC] […] Because mature erythrocytes lack DNA, only Plasmodium-derived DNA is detected. NCGC Assay Protocol Summary: The SYBR Green viability assay was adapted from a method described previously (Plouffe et al., 2008). […] The following morning, fluorescence intensity at 485(14) nm excitation and 535(25) nm emission wavelengths was measured on an EnVision (Perkin Elmer) plate reader. […]
Records with an inconclusive call do not appear. Activity calls are given as the source filed them. The call rests on the fitted dose curve; in most records, active means well fitted inhibition curve with a large enough effect; inconclusive means small, poorly fitted or top-dose-only effect; inactive means flat fitted curve, though single readings scatter.
Outcome codes: true for active, false for inactive

Compound: Clc1cccc(Cl)c1NC1=NCCN1
Assigned Category: false
--
Compound: NC[C@H](O)c1ccc(O)c(O)c1
Assigned Category: false
--
Compound: O=c1[nH]cnc2[nH]ncc12
Assigned Category: false
--
Compound: CCOC(=O)C1=C[C@@]2(CC)CCCN3CCc4c(n1c1ccccc41)[C@H]32
Assigned Category: true
--
Compound: Clc1ccc(Nc2nnc(Cc3ccncc3)c3ccccc23)cc1
Assigned Category: false
--
Compound: CCCc1nn(C)c2c(=O)[nH]c(-c3cc(S(=O)(=O)N4CCN(C)CC4)ccc3OCC)nc12
Assigned Category: false
--
Compound: Cc1cn[nH]c1
Assigned Category: false
--
Compound: Nc1nc2c(ncn2COCCO)c(=O)[nH]1
Assigned Category: false
--
Compound: Oc1ccc(C2CNCCc3c2cc(O)c(O)c3Cl)cc1 (centres undefined)
Assigned Category: false

----------
Assay: qHTS assay for measurement of the activity of small molecule inhibitors on Zika virus induced Caspase-3 activity in human astrocytoma cells (AID 1224859);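 further: plate controls were ZIKV-infected untreated cells for no effect and uninfected cells for full effect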
Conditions: SNB-19 ZIKV-induced caspase-3/7, luminescence, 6 h; series mostly up to 45.7 µM
Calls of active or inactive are those of the source. The call rests on the fitted dose curve; in most records, active means well fitted inhibition curve with a large enough effect; inconclusive means small, poorly fitted or top-dose-only effect; inactive means no such curve, though single readings can be large or run the other way.

Compound: COc1ccc(-c2c(-c3ccc(O)cc3O)n[nH]c2C)cc1
outcome: inactive
//
Compound: CC(C)(C)NCC(O)c1ccc(O)c(CO)c1 (stereo unspecified)
outcome: inactive
//
Compound: N#CC[C@H](C1CCCC1)n1cc(-c2ncnc3[nH]ccc23)cn1
outcome: inactive
//
Compound: CCCCCCCc1ccc(CCc2cccc(O)c2C(=O)O)cc1
outcome: inactive
//
Compound: O=NN(CCCl)C(=O)NCCCl
outcome: inactive
//
Compound: Cc1cc(SCc2sc(-c3ccc(C(F)(F)F)cc3)nc2C)ccc1OCC(=O)O
outcome: inactive
//
Compound: O=c1n(CCCN2CCN(c3cccc(Cl)c3)CC2)nc2ccccn12
outcome: inactive
//
Compound: COc1cccc2cc(-c3nc(C4CCC(C(=O)O)CC4)n4ncnc(N)c34)[nH]c12 (stereo unspecified)
outcome: inactive
//
Compound: C#Cc1cccc(Nc2ncnc3cc(OCCOC)c(OCCOC)cc23)c1
outcome: inactive
//
Compound: CCCc1nn(C)c2c(=O)[nH]c(-c3cc(S(=O)(=O)N4CCN(C)CC4)ccc3OCC)nc12
outcome: inactive
//
Compound: Cc1c(CN2CCN(C(=O)C(C)C)CC2)sc2c(N3CCOCC3)nc(-c3cnc(N)nc3)nc12
outcome: inactive
//
Compound: CN[C@@H](C)C(=O)N[C@H]1CCCC[C@H]2CC[C@@H](C(=O)N[C@@H](c3ccccc3)c3cn(CCCCc4ccc(CCCCn5cc([C@@H](NC(=O)[C@@H]6CC[C@@H]7CCCC[C@H](NC(=O)[C@H](C)NC)C(=O)N76)c6ccccc6)nn5)cc4)nn3)N2C1=O
outcome: inactive
//
Compound: CCCS(=O)(=O)Nc1ccc(F)c(C(=O)c2c[nH]c3ncc(-c4ccc(Cl)cc4)cc23)c1F
outcome: inactive
//
Compound: Nc1nccc(-c2ccc3noc(-c4ccc(Cl)cc4)c3c2)n1
outcome: inactive
//
Compound: Nc1nc2c(ncn2COCCO)c(=O)[nH]1
outcome: inactive
//
Compound: OC(CN1CCC(Cc2ccc(F)cc2)CC1)c1ccc(Cl)cc1 (stereo unspecified)
outcome: inactive

----------
System: MKL-1
Assay: qHTS assay to identify novel small-molecules to repurpose for Merkel cell carcinoma treatment (AID 1296009); further: nearly all actives have a fitted effect of over 60% in size
Conditions: MCC and control cell lines, CellTiter-Glo viability, 72 h; series mostly up to 46 µM
Results filed as inconclusive are left out. Active and inactive are the calls of the source. Calls follow the shape of the dose curve; as a rule, active = well fitted inhibition curve with a large enough effect; inconclusive = small, poorly fitted or top-dose-only effect; inactive = flat fitted curve, though single readings scatter.
Outcome codes: 1.0 for active, 0.0 for inactive

Compound: COc1cc2nccc(Oc3ccc(NC(=O)NC4CC4)c(Cl)c3)c2cc1C(N)=O
Assigned Category: 1.0
//
Compound: CC(=O)Oc1ccccc1C(=O)O
Assigned Category: 0.0
//
Compound: CC(C)(N)C(=O)N[C@H](COCc1ccccc1)C(=O)N1CCC2(CC1)CN(S(C)(=O)=O)c1ccccc12
Assigned Category: 0.0
//
Compound: Nc1nc2ccc(OC(F)(F)F)cc2s1
Assigned Category: 0.0
//
Compound: COc1ccc2nc(S(=O)Cc3ncc(C)c(OC)c3C)[nH]c2c1 (stereo not drawn)
Assigned Category: 0.0
//
Compound: CCC(=O)N[C@H]1CC[C@H](C(=O)N(C)c2ccc(-c3nc4ccccc4o3)cc2)C1
Assigned Category: 0.0
//
Compound: CNC[C@H](O)c1cccc(O)c1
Assigned Category: 0.0
//
Compound: Cc1cccc(-c2[nH]c(C(C)(C)C)nc2-c2ccc3nccnc3c2)n1
Assigned Category: 1.0
